Each record here notes measured pEC50.
Biological target: T1, cynomolgus monkey ST2 on HEK293T-Cyno-ST2-NFκB-Luciferase cells (cynomolgus monkey, UniProt Q01638 19-556 (human entry))
T1 chain: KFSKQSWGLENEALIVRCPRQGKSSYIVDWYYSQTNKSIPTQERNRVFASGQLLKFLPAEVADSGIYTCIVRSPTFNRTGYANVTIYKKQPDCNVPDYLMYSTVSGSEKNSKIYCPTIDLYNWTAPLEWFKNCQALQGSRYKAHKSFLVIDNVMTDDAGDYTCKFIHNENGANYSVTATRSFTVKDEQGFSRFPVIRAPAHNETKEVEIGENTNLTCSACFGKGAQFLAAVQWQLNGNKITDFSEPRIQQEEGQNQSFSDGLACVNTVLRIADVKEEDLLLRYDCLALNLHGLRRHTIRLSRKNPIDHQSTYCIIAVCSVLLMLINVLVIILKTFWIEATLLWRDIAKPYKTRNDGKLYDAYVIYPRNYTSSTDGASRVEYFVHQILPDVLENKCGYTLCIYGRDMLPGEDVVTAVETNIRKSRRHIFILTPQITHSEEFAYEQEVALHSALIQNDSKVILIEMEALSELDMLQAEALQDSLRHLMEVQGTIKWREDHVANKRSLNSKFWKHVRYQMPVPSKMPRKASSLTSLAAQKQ
Assay: flow cytometry on HEK293T-Cyno-ST2-NFκB-Luciferase cells
Lab note: report pEC50 as minus log10 of the concentration in molar units, number only.

Chimeric 26A1 (antibody, human IgG2, kappa, V domains shown, also called xi26A1) VH: QVQLQQSGAELVRPGASVTLSCKASDYIFTDSEIHWVKQTLVHGLEWIGAIDPETGDTAYNQKFKGKATLTADKSSSTAYMELSSLTSEGSAVYYCSGSTTDCYFAYWGQGTTLTVSS VL: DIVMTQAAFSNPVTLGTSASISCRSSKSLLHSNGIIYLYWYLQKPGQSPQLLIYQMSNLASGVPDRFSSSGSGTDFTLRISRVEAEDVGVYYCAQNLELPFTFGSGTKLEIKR; 6.38

Okay, now this binder:
*Q* Tell me the measured pEC50 of Chimeric 8F4 (antibody, human IgG2, kappa, V domains shown, also called xi8F4) VH: QVQLQQSGAELVRPGASVTLSCKASGHIFTDYEMQWVKQTPVHGLEWIGAFDPETGDTAYNQKFKGKATLTADKSSSTAYMELSSLTSEDSAVYYCSGSTTDYYFAYWGQGTSLTVSS VL: DVVMTQTAFSNPVTLGTSASISCRSSKSLLHSNGIIYLYWYLQKPGQSPQLLIYQMSNLASGVPDRFSSSGSGTDFTLRISRVEAEDVGVYYCAQNLELPFTFGSGTKLEIKR , please.
*A* 9.34
